Data provenance is PubChem BioAssay AID2060893.

# System: K86415-001-R-J1-PDC complex spheroids, viability
# EXPERIMENT DESCRIPTION: Anticancer human tumor K86415-001-R-J1-PDC patient-derived lung adenocarcinoma cell line growth inhibition [RAS]; active = viability on the fitted dose curve at most 10% of control; inactive = the rest
# EXPERIMENTAL CONTEXT: second compound 0.03 µM; first compound 0.3 µM
# Text: RAS pathway inhibitors in Combinations in Complex Spheroids A high-throughput screen of multi-cell type tumor spheroids was designed to identify active combinations of RAS pathway inhibitors and targeted small molecules. Complex spheroids include a stromal component modeled by human endothelial cells (HUVEC) and fibroblasts modeled by human mesenchymal stem cells (MSCs). […] Compounds. […] If the clinical Cmax for an agent had not been determined, the highest concentration tested was 10 microM. […]
Choose the fitting class; nothing outside active, inactive is accepted.

CCc1c2c(nc3ccc(O)cc13)-c1cc3c(c(=O)n1C2)COC(=O)[C@]3(O)CC + CCn1c(-c2cc(N3CCN(C)CC3)cnc2C(C)OC)c2c3cc(ccc31)-c1csc(n1)CC(NC(=O)C1CC1C)C(=O)N1CCCC(N1)C(=O)OCC(C)(C)C2 ... active
CC1(C)CCC(Nc2ncc(C(F)(F)F)c(-c3c[nH]c4c(P(C)(C)=O)c(C#N)ccc34)n2)CN1 (centres undefined) + CCn1c(-c2cc(N3CCN(C)CC3)cnc2C(C)OC)c2c3cc(ccc31)-c1csc(n1)CC(NC(=O)C1CC1C)C(=O)N1CCCC(N1)C(=O)OCC(C)(C)C2 ... active

# fetch the recorded call for CCc1c2c(nc3ccc(O)cc13)-c1cc3c(c(=O)n1C2)COC(=O)[C@]3(O)CC + CCn1c(-c2cccnc2C(C)OC)c2c3cc(ccc31)N1CCOC(CC(NC(=O)C(C(C)C)N(C)C(=O)C3(F)CCN(C(=O)C#CC(C)(C)N(C)C)CC3)C(=O)N3CCCC(N3)C(=O)OCC(C)(C)C2)C1 here
active

# fetch the recorded call for CC1(C)CCC(Nc2ncc(C(F)(F)F)c(-c3c[nH]c4c(P(C)(C)=O)c(C#N)ccc34)n2)CN1 (centres undefined) + CCn1c(-c2cccnc2C(C)OC)c2c3cc(ccc31)N1CCOC(CC(NC(=O)C(C(C)C)N(C)C(=O)C3(F)CCN(C(=O)C#CC(C)(C)N(C)C)CC3)C(=O)N3CCCC(N3)C(=O)OCC(C)(C)C2)C1 here
inactive

----------
viability, T/C values by entry
# Tested on: K86415-001-R-J1-PDC complex spheroids, viability
# EXPERIMENT DESCRIPTION: Anticancer human tumor K86415-001-R-J1-PDC cell line growth inhibition [RAS];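 note: spheroids exposed to agents for seven days before readout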
# EXPERIMENTAL CONTEXT: second compound 0.000949 µM; first compound 0.00316 µM; hits give low values
State just the number; it will be interpreted in %.

Worked cases, viability, T/C given:
Nc1ccn(C2OC(CO)C(O)C2(F)F)c(=O)n1 (centres undefined) + CCn1c(-c2cc(N3CCN(C)CC3)cnc2C(C)OC)c2c3cc(ccc31)-c1csc(n1)CC(NC(=O)C1CC1C)C(=O)N1CCCC(N1)C(=O)OCC(C)(C)C2 ... 47
CCN1CCN(Cc2ccc(Nc3ncc(F)c(-c4cc(F)c5nc(C)n(C(C)C)c5c4)n3)nc2)CC1 + CCn1c(-c2cccnc2C(C)OC)c2c3cc(ccc31)N1CCOC(CC(NC(=O)C(C(C)C)N(C)C(=O)C3(F)CCN(C(=O)C#CC(C)(C)N(C)C)CC3)C(=O)N3CCCC(N3)C(=O)OCC(C)(C)C2)C1 ... 39.1
O=C(c1ccc(F)c(F)c1Nc1ccc(I)cc1F)N1CC(O)([C@@H]2CCCCN2)C1 + CCn1c(-c2cccnc2C(C)OC)c2c3cc(ccc31)N1CCOC(CC(NC(=O)C(C(C)C)N(C)C(=O)C3(F)CCN(C(=O)C#CC(C)(C)N(C)C)CC3)C(=O)N3CCCC(N3)C(=O)OCC(C)(C)C2)C1 ... 33.7

Consider the additional compound presented here.
Report viability, T/C for CC(C)n1nc(-c2ccc3oc(N)nc3c2)c2c(N)ncnc21 + CCn1c(-c2cc(N3CCN(C)CC3)cnc2C(C)OC)c2c3cc(ccc31)-c1csc(n1)CC(NC(=O)C1CC1C)C(=O)N1CCCC(N1)C(=O)OCC(C)(C)C2 please.
39.5
